Origin of measurements: ChEMBL document CHEMBL5705892

- System: HCC1954
- assayNotes: Antiproliferative activity against human HCC1954 cells assessed as reduction in cell proliferation measured after 72 hrs by celltiter-glo assay
- Format: functional, cell-based
- appliedConditions: HCC1954, 72 h
IC50 by entry:

{"columns": ["chemicalSmiles", "unitDescriptor", "IC50"],
 "data": [
  ["CS(=O)(=O)CCNCc1ccc(-c2ccc3ncnc(Nc4ccc(OCc5cccc(F)c5)c(Cl)c4)c3c2)o1", "µM", 5.5],
  ["Cl.NC1(c2ccc(-c3nc4ccn5c(=O)[nH]nc5c4cc3-c3ccccc3)cc2)CCC1", "µM", 2.9]
]}

* * *

- Test system: HCC70
- assayNotes: Antiproliferative activity against human HCC70 cells assessed as reduction in cell proliferation measured after 72 hrs by celltiter-glo assay
- Type: functional, cell-based
- appliedConditions: HCC70, 72 h
recordedMetric: IC50 (nM)

{"columns": ["chemicalSmiles", "experimentalSystem", "recordedMetric", "valueMeasured"],
 "data": [
  ["Cl.NC1(c2ccc(-c3nc4ccn5c(=O)[nH]nc5c4cc3-c3ccccc3)cc2)CCC1", "HCC70", "IC50", 300],
  ["CS(=O)(=O)CCNCc1ccc(-c2ccc3ncnc(Nc4ccc(OCc5cccc(F)c5)c(Cl)c4)c3c2)o1", "HCC70", "IC50", 3200]
]}

* * *

- Tested on: A-431
- assayNotes: Antiproliferative activity against human A-431 cells assessed as reduction in cell proliferation measured after 72 hrs by celltiter-glo assay
- Assay type: functional, cell-based
- appliedConditions: A-431, 72 h
IC50 by entry:

{"columns": ["chemicalSmiles", "IC50 [µM]"],
 "data": [
  ["C#Cc1cccc(Nc2ncnc3cc(OCCOC)c(OCCOC)cc23)c1", 1.9],
  ["Cl.NC1(c2ccc(-c3nc4ccn5c(=O)[nH]nc5c4cc3-c3ccccc3)cc2)CCC1", 5.5]
]}

* * *

IC50 by entry:
- Tested on: NCI-N87
- assayNotes: Antiproliferative activity against human NCI-N87 cells assessed as reduction in cell proliferation measured after 72 hrs by celltiter-glo assay
- Format: functional, cell-based
- appliedConditions: NCI-N87, 72 h

{"columns": ["compound", "IC50"],
 "data": [
  ["Cl.NC1(c2ccc(-c3nc4ccn5c(=O)[nH]nc5c4cc3-c3ccccc3)cc2)CCC1", "1600 nM"],
  ["CS(=O)(=O)CCNCc1ccc(-c2ccc3ncnc(Nc4ccc(OCc5cccc(F)c5)c(Cl)c4)c3c2)o1 [LAPATINIB]", "40 nM"]
]}
